// provenance: PubChem BioAssay (NCI)

test system: SK-OV-3 ovarian; assay: NCI tumour cell line growth inhibition, 48 h
attribute measured: TGI

>>> recorded_measurement("COc1ccc(C2C3=C(COC3=O)OC(C)(C)Oc3cc4c(cc32)OCO4)cc1OC (stereo unspecified)")
"> 100 µM"
>>> recorded_measurement("COc1cccc(NC(=O)c2sc3nc4c(cc3c2N)C(O)CCC4)c1 (stereo unspecified)")
"> 71.3 µM"
>>> recorded_measurement("Cc1cccc(Nc2cc(Cl)nc(SCC(=O)O)n2)c1C")
"> 100 µM"
>>> recorded_measurement("COc1cc(OC)c(OC)cc1/C=C/c1cc[n+](C)c2ccccc12")
"> 100 µM"
>>> recorded_measurement("O=[N+]([O-])C(C(Cl)=C(Cl)Cl)=C(n1cncn1)n1cncn1")
"> 100 µM"
>>> recorded_measurement("CNC(=S)/C(C#N)=C(\\N)N1CCCC1")
"> 100 µM"
>>> recorded_measurement("CCC(=O)C(C(=O)CC)c1c(OC(=O)c2ccccc2)ccc(O)c1C(=O)OC")
"> 100 µM"
>>> recorded_measurement("O=C(Nc1ccc2cc3ccccc3cc2c1)c1cc2c(cc1Cl)Sc1nccn1S2(=O)=O")
"> 100 µM"
>>> recorded_measurement("CCn1c(=N)sc2nc3ccccc3n2c1=O")
"> 100 µM"
>>> recorded_measurement("COc1ccc2c(c1)CCc1c(CO)c(COC(=O)NC(C)C)n(C)c1-2")
"73.3 µM"
>>> recorded_measurement("Cc1cc(C)nc(NS(=O)(=O)c2ccc(NC(=O)c3cc([N+](=O)[O-])cc([N+](=O)[O-])c3)cc2)n1")
"> 100 µM"
>>> recorded_measurement("COC(=O)CC(C(C(C)=O)C(=O)OCc1ccccc1)N1C(=O)OC(c2ccccc2)C1c1ccccc1 (stereo unspecified)")
"> 100 µM"
>>> recorded_measurement("COc1cc(CN(c2ccc(C)cc2)C2OC(=O)c3ccccc32)cc(OC)c1OC (stereo unspecified)")
"> 57.9 µM"
>>> recorded_measurement("O=c1[nH]c(=O)n([C@@H]2O[C@H](CO)[C@@H](O)[C@@H]2F)cc1I")
"> 100 µM"
>>> recorded_measurement("O=c1c2c3c(sc2nc2n1N=CN(c1ccc(F)cc1)C2)CCCC3")
"> 100 µM"
>>> recorded_measurement("Clc1ccc(OCc2nnc3n2N=C(c2ccccc2)CS3)c(Cl)c1")
"> 100 µM"
>>> recorded_measurement("Cc1ccc(S(=O)(=O)NC(=O)NC(CCC(N)=O)C(=O)O)cc1 (stereo unspecified)")
"> 100 µM"
>>> recorded_measurement("CCc1nc2cc(/C=C/C(=O)NO)ccc2c(=O)n1CCc1ccc(OC)cc1")
"6.11 µM"
>>> recorded_measurement("C[n+]1cn(-c2nc3ccccc3nc2[N-]S(=O)(=O)c2ccccc2)c2ccccc21")
"> 100 µM"
>>> recorded_measurement("CN(C)CCCCCNc1c2ccccc2nc2cccc([N+](=O)[O-])c12")
"> 0.0245 µM"
>>> recorded_measurement("C=C(CN1c2ccccc2Sc2ccccc21)c1ccc(C(=O)Nc2ccccc2N)cc1")
"> 100 µM"

----------
tested on: RPMI-8226 leukemia; assay: NCI tumour cell line growth inhibition, 48 h
Entries annotated with measured TGI
attribute measured: TGI

>>> recorded_measurement("Nc1ccc(-c2ccc3ncc4ccc(=O)n(-c5cccc(C(F)(F)F)c5)c4c3c2)cn1")
"0.241 µM"
>>> recorded_measurement("Nc1c2cc3ccc2nc2ccc(cc12)OCCOCCOCCOCCOCCOCCO3")
"> 10 µM"
>>> recorded_measurement("O=C([CH-]C(=O)c1ccccc1)c1ccccc1.O=C([CH-]C(=O)c1ccccc1)c1ccccc1.O=C([CH-]C(=O)c1ccccc1)c1ccccc1.[Cl-].[Zr+4]")
"> 100 µM"
>>> recorded_measurement("CC(=O)O[C@H](C[C@H](C(C)C)N(C)C(=O)[C@@H](NC(=O)[C@H]1CCCCN1C)C(C)C)c1cccc(C(=O)N[C@@H](Cc2ccccc2)C[C@H](C)C(=O)O)n1")
"> 25 µM"
>>> recorded_measurement("CCCCCCCCCCOC(=O)c1cc[n+](C)cc1")
"38.2 µM"
>>> recorded_measurement("COc1ccc2c(c1OC)C(=O)O[C@@H]2[C@H]1c2c(cc3c(c2OC)OCO3)CCN1C")
"> 100 µM"
>>> recorded_measurement("O=C(NC(=O)c1cn(CCN2CCN(C(=O)NCCCCCCNC(=O)N3CCN(CCn4cc(C(=O)NC(=O)OCc5ccccc5)c(=O)[nH]c4=O)CC3)CC2)c(=O)[nH]c1=O)OCc1ccccc1")
"> 100 µM"
>>> recorded_measurement("Cc1ccc(C2C(Cl)C(=O)N2NC(=O)c2ccc(N)cc2)cc1 (stereo not drawn)")
"78.9 µM"

----------
A collection of compounds and their measured TGI
test system: SK-MEL-2 melanoma; test: NCI tumour cell line growth inhibition, 48 h
attribute measured: TGI (µM)

>>> recorded_measurement("COc1ccc2nc3cccc([N+](=O)[O-])c3c(NCCNCCN(C)C)c2c1")
0.107
>>> recorded_measurement("O=C1NC(=Nc2ccccc2Cl)N/C1=C\\c1ccc(Cl)cc1Cl")
58.4
>>> recorded_measurement("CC[C@@H](O)C[C@H]1CCC[C@@]2(C[C@@H]3OC(=O)/C=C/[C@@](C)(O)[C@@H](O)[C@H](C)[C@@H](O)[C@H](OC4CCC(N(C)C)C(C)O4)[C@@H](O)[C@](C)(O)CCCCC/C=C/[C@@H]4CC(C)(C)O[C@@]4(O)C[C@H](O2)[C@H]3C)O1 (some centres undefined)")
22.7

----------
test system: COLO 205 colon; assay: NCI tumour cell line growth inhibition, 48 h
attribute measured: TGI

>>> recorded_measurement("O=C(/C=C\\n1cnc(-c2cc(C(F)(F)F)cc(C(F)(F)F)c2)n1)N1CC(F)(F)C1")
"4.14 µM"
>>> recorded_measurement("O=C(/C(=N/Nc1ccccc1)c1ccc([N+](=O)[O-])cc1)c1ccc([N+](=O)[O-])cc1")
"> 100 µM"
>>> recorded_measurement("C=CCn1c(-c2ccc(Cl)cc2)csc1=Nc1ccccc1OC")
"> 100 µM"
>>> recorded_measurement("[N-]=[N+]=Nc1ccc2c(c1)Sc1ccccc1N2CCCCN1CCN(C(=O)CCNC(=O)Cc2ccc(C(=O)c3ccccc3)cc2)CC1")
"8.92 µM"
>>> recorded_measurement("CCn1c(CSc2nc(-c3ccccc3)c(-c3ccccc3)[nH]2)n[nH]c1=S")
"> 100 µM"
>>> recorded_measurement("C[n+]1cn(-c2nc3ccccc3nc2[N-]S(=O)(=O)c2ccccc2)c2ccccc21")
"> 100 µM"
>>> recorded_measurement("O/N=C\\C(=Nc1ccc(Cc2ccc(N=C(/C=N\\O)NO)cc2)cc1)NO")
"> 100 µM"
>>> recorded_measurement("COc1ccc(C2C3=C(COC3=O)OC(C)(C)Oc3cc4c(cc32)OCO4)cc1OC (centres undefined)")
"48.1 µM"
>>> recorded_measurement("C/C(CC(=O)Nc1ccc(NC(=O)C/C(C)=N\\NC(N)=O)cc1)=N/NC(N)=O")
"> 79.7 µM"

----------
tested on: SN12C renal; experiment: NCI tumour cell line growth inhibition, 48 h
attribute measured: TGI

>>> recorded_measurement("CN1CCN(CCCOc2cccc3nc(Nc4ccc(F)c(F)c4)ccc23)CC1")
"9.93 µM"
>>> recorded_measurement("S=C(CSc1ccccc1)Nc1cccc2ccccc12")
"> 100 µM"
>>> recorded_measurement("O=C(c1ccco1)N(C(=S)N1CCN(c2ccccn2)CC1)c1ccccc1")
"> 100 µM"
>>> recorded_measurement("C/C(=N\\NC(N)=S)c1sc(-n2nc(-c3ccccc3)cc2-c2ccccc2)nc1C")
"> 100 µM"
>>> recorded_measurement("C/C(O)=C(\\C=NC(=S)c1ccncc1)C(=O)Nc1ccccc1C")
"> 100 µM"
>>> recorded_measurement("C=CCCC(=O)C(=[N+]=[N-])C(=O)CCC(=O)c1ccccc1")
"> 10 µM"
>>> recorded_measurement("COc1cc(-c2cc3ncccc3c3[nH]c(=O)c4cccnc4c23)cc(OC)c1OC")
"> 100 µM"
>>> recorded_measurement("CCNC(=S)NNC(=O)CSc1nc2ccc(I)cc2c(=O)n1Cc1ccccc1")
"> 100 µM"
>>> recorded_measurement("Cc1ccc(C2C(Cl)C(=O)N2NC(=O)c2ccc(N)cc2)cc1 (stereo unspecified)")
"52.2 µM"
>>> recorded_measurement("COc1ccc(-c2n[nH]nc2-c2cc(OC)c3c(c2)OCO3)cc1")
"55.6 µM"
>>> recorded_measurement("CCOC(=O)c1nc2cc(C(F)(F)F)ccc2nc1Oc1ccc(F)cc1")
"> 100 µM"

----------
tested on: NCI-H460 lung; experiment: NCI tumour cell line growth inhibition, 48 h
TGI reference
attribute measured: TGI

>>> recorded_measurement("COc1cc2nc(-c3cccc4cccnc34)nc(NC3CCN(Cc4ccccc4)CC3)c2cc1OC")
"1.23 µM"
>>> recorded_measurement("CN1CCCN2CCN(C)CCCN(CC1)CC2")
"> 100 µM"
>>> recorded_measurement("COc1cccc2nc3c(C(=O)NCCN(C)C)cccc3nc12")
"21 µM"
>>> recorded_measurement("CC[n+]1c(/C=C/c2ccc(N(CCCl)CCCl)cc2)ccc2cc(I)ccc21")
"10.1 µM"
>>> recorded_measurement("Nc1nc2c(ccc3ccccc32)s1")
"> 100 µM"
>>> recorded_measurement("NS(=O)(=O)c1nnc(NS(=O)(=O)c2ccc([N+](=O)[O-])cc2)s1")
"> 100 µM"
>>> recorded_measurement("COc1ccc(C2C3=C(COC3=O)OC(C)(C)Oc3cc4c(cc32)OCO4)cc1OC (stereo not given)")
"> 100 µM"
>>> recorded_measurement("COc1ccc2[nH]c(C(=O)OCc3ccc4cccc(O)c4n3)cc2c1")
"5.41 µM"
>>> recorded_measurement("CCOC(=O)C1=C(C(=O)OCC)C2(c3ccccc3)N(O1)c1ccccc1C2(C)C (stereo not given)")
"> 100 µM"
>>> recorded_measurement("C[C@H]1O[C@@H](C(C)(C)C)OC(=O)[C@@H]1C(OC(=O)c1ccccc1)c1cccc2ccccc12 (stereo not given in full)")
"> 100 µM"
>>> recorded_measurement("CCN(CC)c1ccc2nc3ccc(N=Nc4ccc(O)cc4)cc3[n+](-c3ccccc3)c2c1")
"> 100 µM"
>>> recorded_measurement("COc1ccc2nc3cccc([N+](=O)[O-])c3c(NCCNCCN(C)C)c2c1")
"0.0967 µM"
>>> recorded_measurement("COc1cc(S(=O)(=O)Nc2ccc(-c3csc(N4C(=O)C(Cl)C4c4cccs4)n3)cc2)ccc1Cl (stereo not given)")
"> 100 µM"
>>> recorded_measurement("COc1cccc(NC(=O)c2sc3nc4c(cc3c2N)C(O)CCC4)c1 (stereo not given)")
"> 100 µM"
>>> recorded_measurement("COc1ccc(-c2n[nH]nc2-c2cc(OC)c3c(c2)OCO3)cc1")
"13.2 µM"
>>> recorded_measurement("Cc1cc(C)nc(NS(=O)(=O)c2ccc(NC(=O)c3cc([N+](=O)[O-])cc([N+](=O)[O-])c3)cc2)n1")
"> 100 µM"
>>> recorded_measurement("NC(CSC(c1ccccc1)(c1ccccc1)c1ccc(F)cc1)C(=O)O (stereo not given)")
"14.9 µM"
>>> recorded_measurement("Nc1ccccc1C(=O)NC(=O)Nc1ccc(Oc2ncc(Br)cn2)c(Cl)c1")
"3.53 µM"
>>> recorded_measurement("COc1ccc2c(c1OC)C(=O)O[C@@H]2[C@H]1c2c(cc3c(c2OC)OCO3)CCN1C")
"> 100 µM"
>>> recorded_measurement("CCOc1ccc(C(C)=O)cc1NC(=O)c1cccc(-c2nnn(CC)n2)c1")
"> 100 µM"
>>> recorded_measurement("C#CC(O)/C=C/C(O)CCCC(O)CC#CC(O)C#CCCCCC(O)/C=C/CCCC(O)/C=C/CCCCCCCCCCCCCC(O)C(O)C#CC(=O)O (stereo not given)")
"> 25 µM"
>>> recorded_measurement("C=C(CN1c2ccccc2Sc2ccccc21)c1ccc(C(=O)Nc2ccccc2N)cc1")
"> 100 µM"
>>> recorded_measurement("COc1cc(OC)c(OC)cc1/C=C/c1cc[n+](C)c2ccccc12")
"> 100 µM"
>>> recorded_measurement("C/C(CC(=O)Nc1ccc(NC(=O)C/C(C)=N\\NC(N)=O)cc1)=N/NC(N)=O")
"> 100 µM"
>>> recorded_measurement("CC(=O)NC1=C(N)C(=O)c2ccccc2C1=O")
"40.6 µM"
>>> recorded_measurement("COc1cc(-c2cc3ncccc3c3[nH]c(=O)c4cccnc4c23)cc(OC)c1OC")
"> 100 µM"
>>> recorded_measurement("CCCCCCCCCCOC(=O)c1cc[n+](C)cc1")
"38.8 µM"
>>> recorded_measurement("CCn1c(CSc2nc(-c3ccccc3)c(-c3ccccc3)[nH]2)n[nH]c1=S")
"> 100 µM"
>>> recorded_measurement("COc1cc(NC(C)CCCNC(C)C)c2ncccc2c1OC (stereo not given)")
"> 100 µM"
>>> recorded_measurement("O=[N+]([O-])C(C(Cl)=C(Cl)Cl)=C(n1cncn1)n1cncn1")
"> 100 µM"
